- Tested on: MCF7 breast
- run_description: NCI-60 one-dose screen, 48 h (100 = growth as untreated, 0 = no growth, -100 = all killed)
- condition_set: 10 µM unless noted
The panel holds about 83,000 compounds, 20% with a hit somewhere; the sample as a whole holds those more often.
Classes (growth): 1 = under 20%, 2 = from 20% up to 80%, 3 = 80% and over

Solved entries (count: 5):
CCN1C(=O)N(CC)C2C1NC(=O)N2/N=C/C=C/c1ccccc1 (stereo unspecified); 1
CNC(=O)OC1C(O[C@H]2C[C@H]3[C@@H]4CC=C5C[C@@H](O)CC[C@]5(C)[C@H]4CC[C@]3(C)[C@H]2[C@H](C)C(=O)CCC(C)C)OCC(O)C1OC1OCC(O)C(O)C1OC(=O)c1ccc(OC)cc1 (stereo partly specified); 1
OCCN(CCO)c1ccc2ccccc2c1; 3
CC1CCN(CCCCCOc2ccc3oc4ccc(Cl)cc4c(=O)c3c2)CC1; 2
O=C(Nc1ccc(-n2ccc3c(NC(=O)c4ccccc4)nccc32)cc1)c1ccc(N2CCOCC2)c(C(F)(F)F)c1; 2

Form: Item = O=C(CCl)Nc1ccc2c(c1)C(=O)c1ccccc1C2=O ; Class = ?
1

Which growth band matches N#CCCn1cnc2c(N)ncnc21 ?
3

Which category fits this record: CCn1c(=O)c(C(=O)NCCCO)c(O)c2ccccc21
3

Form: Item = CCCCCCCCCCCCCCCCCC1=NCCN1CCO ; Class = ?
2

====

- Tested on: HCC-2998 colon
- run_description: NCI-60 one-dose screen, 48 h
- condition_set: 10 µM unless noted
The panel holds about 83,000 compounds, 20% with a hit somewhere; the sample as a whole holds those more often. Calls of active or inactive are those of the source. The calls were made as follows: active = growth percent below 10; inactive = the rest.
One label from this list, please: yes = active, no = inactive

Worked examples, 4 compounds total:
CN1CCC2(CC1)N=C(SCC(=O)Nc1cnc3ccccc3c1)C(c1ccc(Br)cc1)=N2; yes
COc1cc(C2CC(c3ccc(Cl)cc3)=NN2C(C)=O)ccc1Oc1nc2c(c(=O)n(C)c(=O)n2C)n1C (stereo not given); no
O=C(CC(=O)c1ccccc1F)Nc1ccc([N+](=O)[O-])cc1; no
O=C(c1ccccc1)C(CCc1ccccn1)CCc1ccccn1; no

Recorded test outcome, item COc1nccc2c(Sc3ccccc3)nc(N)nc12
no

====

- Test system: LOX IMVI melanoma
- run_description: NCI-60 one-dose screen, 48 h (100 = growth as untreated, 0 = no growth, -100 = all killed)
- condition_set: 10 µM unless noted
Compounds without any hit were thinned out: in the full panel of roughly 83,000, 20% have a hit.
endpoint_label: growth (%)
Number in %, nothing else.

Would you please look over these solved cases?
Cc1[nH]c2ccccc2c1C1=CC(=O)C=CC1=O; 79.1
COc1ccc(/C(C)=N/NC(=O)c2ccc(S(C)(=O)=O)cc2)cc1OC; 106
O=C(/C=C/c1ccco1)c1ccccc1O; 95.2
c1ccc(-c2ccc(-c3ccccc3)[nH]2)cc1; 103

// map CS(=O)(=O)c1ccc(C(=O)Nc2ccc(Cl)c(-c3ccccn3)c2)c(Cl)c1 to recorded growth (system: LOX IMVI melanoma)
16

// lookup growth | system=LOX IMVI melanoma | key= COc1ncnc2[nH]cc(CN3CCN(c4ccc(F)cc4)CC3)c12
106

====

- Test system: SNB-19 CNS
- run_description: NCI-60 one-dose screen, 48 h (100 = growth as untreated, 0 = no growth, -100 = all killed)
- condition_set: 10 µM unless noted
About 83,000 compounds went through this panel and 20% of them were active in at least one assay; those are over-represented in the sample as a whole.
Reported growth values are given for each entry in this list.
Provide only the numeric value, understood in %.

Cc1ccc(OC2=C(C#N)C(=N)N3C(=NN2)Sc2c(C)ccc(C)c23)cc1; 118
Nc1cc(C(=O)O)cc(C(=O)O)c1; 111
CN1C(=O)C(C(=O)/C=C/c2ccccc2C(=O)O)C(=O)N(C)C1=O; 105
COc1ccc2nc(C)cc(Sc3nc4ccccc4s3)c2c1; 62
NC(CCC(=O)NC(CS)C(=O)NCC(=O)O)C(=O)O (stereo unspecified); 99
Cn1cnc([N+](=O)[O-])c1S(=O)(=O)Oc1cccc2ccccc12; 98.8
CC(C)(C)OC[C@@H]1N=C(c2ccc(Br)cc2)Nc2nc3ccccn3c2C1=O; 76.5
CCN(CC)CCNC(=O)n1cc(-c2ccncc2)c(-c2ccc(Cl)c(OC)c2)n1; 93

Query: growth; subject: CCCCn1cnc2c(SCc3ccc([N+](=O)[O-])cc3)nc(N)nc21
86

Looking for the measured growth of Cc1ccccc1C1CC(=O)c2ccccc2C1C (stereo unspecified) , can you help?
94.5

Fill blank: measured growth of the compound COc1cc(/C=N/NC(=O)Cn2c(-c3ccc(C)o3)nc3ccccc32)ccc1OCc1ccccc1 is ____.
79.6

The measured values listed here are drawn from PubChem BioAssay (NCI).
